# System: HCT-116
# METHOD: NCI tumour cell line growth inhibition, 48 h
Calls of active or inactive are those of the source. No stated cut-off is given here; in the data, active = GI50 up to about 1.1 µM and inactive = higher.
Output constraint: value belongs to true (1) = active, false (0) = inactive

Example entries and their recorded answers appear below.
{"columns": ["MOLECULE", "ASSIGNED LABEL"],
 "data": [
  ["N#CC1=C(N)OC2=C(CCCc3ccc([N+](=O)[O-])cc32)C1c1ccccc1 (stereo not drawn)", "false (0)"],
  ["CN(C)CC(/C(Cc1ccccc1)=N\\NC(=S)NN)c1ccccc1 (stereo not drawn)", "false (0)"],
  ["O=C1C[C@H](Sc2ccccc2)C2(OCCO2)[C@H]2ON3CCC[C@@H]3[C@@H]12", "true (1)"],
  ["COc1cc(C2S/C(=C/c3ccccc3)C(=O)N2Cc2ccccc2)cc(OC)c1OC (stereo not drawn)", "false (0)"],
  ["Cc1ccc(S(=O)(=O)N/N=C2\\CC(C)OC3=C2CCCCCC3)cc1 (stereo not drawn)", "false (0)"],
  ["COP(=O)(OC)C(C)(C)NC(=O)NC(F)(F)F", "false (0)"],
  ["CCCCCCCC/C=C/CCCCCCCC1CC(O)C(=O)O1 (stereo not drawn)", "false (0)"],
  ["CCCCCCCCCCCCCC(=O)O.O=CC(O)C(O)C(OC1OC(CO)C(O)C(O)C1O)C(O)CO (stereo not drawn)", "false (0)"],
  ["CC1=Nc2ccccc2SC(c2c(Cl)cccc2Cl)C1 (stereo not drawn)", "true (1)"],
  ["Cc1ccc(/C=C2\\CN(C)CC3C(c4ccc(C)cc4)=C(C#N)C(=O)NC23)cc1 (stereo not drawn)", "false (0)"]
]}

Test call, this molecule: O=C(CSc1nc2ccccc2c2ccccc12)c1ccccc1
false (0)

// return assay outcome for CC(=O)c1ccccc1NC(=O)C(=O)C(C(=O)c1ccccc1-c1ccccc1)C1OC(=O)c2ccccc21 (stereo not drawn)
false (0)

Which outcome did this test record for the molecule COc1cc(O)c2c(c1O)C(=O)c1cc(C)ncc1C2=O ?
false (0)

Check the results log: what was the call for c1coc(C2=Nc3cccc4cccc(c34)N2)c1 ?
false (0)

Each molecule tested received a call. Report the one for COc1cc2c(c(O)c1C)C(=O)CC(c1ccccc1)O2 (stereo not drawn) .
false (0)

====

# Test system: A549
# METHOD: NCI tumour cell line growth inhibition, 48 h
Active and inactive are the calls of the source. No stated cut-off is given here; in the data, active = GI50 up to about 1.1 µM and inactive = higher.
Please reply with one of these outcomes: yes (1) for active, no (0) for inactive

A selection of reference data follows.
{"columns": ["MOLECULE", "TARGET DESC", "ASSIGNED LABEL"],
 "data": [
  ["Cc1ccc(NC(=O)CC/C(CC(=O)c2ccc(F)cc2)=N\\NC(=O)C(=O)NN)cc1C", "A549", "no (0)"],
  ["[O-][Cl+3]([O-])([O-])[O-].c1ccc(-c2[o+]c(-c3ccccc3)c(-c3ccccc3)c(-c3ccccc3)c2-c2ccccc2)cc1", "A549", "no (0)"],
  ["COc1ccc(N2C(=O)C3c4[nH]c5ccccc5c4C4CC(C)(C)CC(C)(C)C4C3C2=O)cc1 (stereo not given)", "A549", "no (0)"]
]}

State the result this test recorded for O=C1CN(c2ccc(Cl)cc2)C(=O)CN1NCNN1CC(=O)N(c2ccc(Cl)cc2)CC1=O .
no (0)

Given CN(C)C(=S)/N=c1\ssc(=S)n1Cc1ccccc1 , state the outcome it received in this test.
yes (1)

Kindly provide the recorded test outcome for the following molecule: COc1cc(Nc2nc3ccccc3nc2-c2cccs2)cc(OC)c1OC
no (0)

Assay outcome for CN(C)CCCNc1ccnc2cccc([N+](=O)[O-])c12 : what was it?
no (0)

Give the logged outcome of this assay for the following molecule: COc1cc(O)c2c(c1O)C(=O)c1cc(C)ncc1C2=O
no (0)

Name the outcome recorded for Cc1sc(Cc2ccccc2)nc1-c1ccc(N)cc1 in the assay.
no (0)

Which outcome did this test record for the molecule Cc1ccc2c(c1)C(=O)/C(=N/Nc1ccc(Cl)cc1)CCO2 ?
no (0)
